study-system: T1, recombinant human PCSK9-His protein (Immunogen A) (human, UniProt Q8NBP7 31-692, limits assumed, biotinylated in the ELISA assays)
T1 construct: also called hPCSK9-His; His-tagged hPCSK9; not shown: His tag
test-details: ELISA of PCSK9 binding to LDLR ECD; antibody 40 nM
property: OD450 nm (OD450 nm)
Reply numerically in OD450 nm, unit not repeated.

[ask] Could you tell me which OD450 nm is on file for 74C10A8, fully human anti-PCSK9 antibody (antibody, human IgG1, V domains shown) VH: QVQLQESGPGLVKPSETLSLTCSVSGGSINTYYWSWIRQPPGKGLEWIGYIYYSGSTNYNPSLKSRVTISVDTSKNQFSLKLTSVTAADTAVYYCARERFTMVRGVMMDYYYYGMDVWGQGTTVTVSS VL: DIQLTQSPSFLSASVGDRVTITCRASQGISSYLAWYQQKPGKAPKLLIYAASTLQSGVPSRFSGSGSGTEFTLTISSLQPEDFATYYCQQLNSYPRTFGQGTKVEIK ?
[reply] 1.43

[ask] Could you tell me which OD450 nm is on file for 139G1C5, fully human anti-PCSK9 antibody (antibody, human IgG1, V domains shown) VH: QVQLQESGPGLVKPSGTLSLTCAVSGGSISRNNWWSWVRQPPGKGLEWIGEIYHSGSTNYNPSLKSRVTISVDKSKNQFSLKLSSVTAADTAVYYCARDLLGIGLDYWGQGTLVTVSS VL: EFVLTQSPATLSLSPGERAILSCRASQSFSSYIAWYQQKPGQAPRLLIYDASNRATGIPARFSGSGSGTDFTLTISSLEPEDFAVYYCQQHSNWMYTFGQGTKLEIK ?
[reply] 1.35

[ask] Could you tell me which OD450 nm is on file for 152G2F7, fully human anti-PCSK9 antibody (antibody, human IgG1, V domains shown) VH: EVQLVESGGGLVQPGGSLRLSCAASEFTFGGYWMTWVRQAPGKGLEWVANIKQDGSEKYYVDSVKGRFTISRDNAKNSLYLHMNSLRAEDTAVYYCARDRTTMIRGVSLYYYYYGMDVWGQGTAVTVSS VL: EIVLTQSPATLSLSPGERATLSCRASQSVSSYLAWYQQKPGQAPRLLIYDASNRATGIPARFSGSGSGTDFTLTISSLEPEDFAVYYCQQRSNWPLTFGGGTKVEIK ?
[reply] 1.31
